Target Or System: Retinoic acid receptor alpha (Homo sapiens, UniProt P10276)
Sequence (P10276 whole entry): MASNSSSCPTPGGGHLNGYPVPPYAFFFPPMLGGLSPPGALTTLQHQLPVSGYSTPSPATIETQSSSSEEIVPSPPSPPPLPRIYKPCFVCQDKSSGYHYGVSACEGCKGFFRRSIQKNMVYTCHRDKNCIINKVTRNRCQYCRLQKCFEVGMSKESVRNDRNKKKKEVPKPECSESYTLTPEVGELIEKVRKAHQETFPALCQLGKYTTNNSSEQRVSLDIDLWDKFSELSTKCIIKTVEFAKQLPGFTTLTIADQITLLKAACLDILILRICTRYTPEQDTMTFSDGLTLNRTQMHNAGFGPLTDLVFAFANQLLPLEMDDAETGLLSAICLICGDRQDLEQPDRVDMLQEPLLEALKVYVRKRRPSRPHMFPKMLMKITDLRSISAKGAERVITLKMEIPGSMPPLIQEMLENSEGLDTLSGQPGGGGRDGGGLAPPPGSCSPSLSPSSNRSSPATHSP
Test Name: Transcriptional activation in CV-1 cells expressing RAR-alpha receptor
Type: cell-based
# key: entry, value: EC50

{"Compound Structure String": "CC(/C=C/C=C(\\C)c1ccc2c(c1)C(C)(C)CCO2)=C\\C(=O)O", "EC50": "0.74 µM"}
{"Compound Structure String": "C/C(=C\\c1ccc(C(=O)O)cc1)c1ccc2c(c1)C(C)(C)CO2", "EC50": "2.3 µM"}
{"Compound Structure String": "C/C(=C\\c1ccc(C(=O)O)cc1)c1ccc2c(c1)C(C)(C)CCO2", "EC50": "1.1 µM"}
{"Compound Structure String": "CC(/C=C/C=C(\\C)c1ccc2c(c1)C(C)(C)CS2)=C\\C(=O)O", "EC50": "1 µM"}
